Enterobacter cloacae: reported Minimum inhibitory concentration, Ec FADDI-EC001 for various molecules.
Positions of bridges follow the written chain, without caps; N, C: chain ends. Non-standard residues stand in square brackets, D forms with d. Residues, ends and D or L forms follow the SMILES beside them. *: point of attachment. X30 = Cc1cc(C)c(C(=O)*)c(C)c1; Decanoyl = CCCCCCCCCC(=O)*; Octanoyl = CCCCCCCC(=O)*; X25 = Cc1cccc(C(=O)*)c1C; Dab = NCC[C@H](N)C(=O)O; X39 = O=C(Cc1ccccc1Cl)*; Abu = CC[C@H](N)C(=O)O; Dap = NC[C@H](N)C(=O)O

CC[C@@H]1NC(=O)[C@@H](CC(C)C)NC(=O)[C@H](CCN)NC(=O)[C@@H](NC(=O)[C@H](CN)NC(=O)[C@@H](NC(=O)[C@H](CCN)NC(=O)Cc2ccccc2Cl)[C@@H](C)O)CCNC(=O)[C@H]([C@@H](C)O)NC(=O)[C@H](CCN)NC(=O)[C@H](CCN)NC1=O [Compound 84] (X39-[Dab]T[Dap][Dab][Dab][dL][Abu][Dab][Dab]T; lactam 4-C) :: <0.125 mg/L
CC[C@@H]1NC(=O)[C@@H](CC(C)C)NC(=O)[C@H](CCN)NC(=O)[C@@H](NC(=O)[C@H](CN)NC(=O)[C@@H](NC(=O)[C@H](CCN)NC(=O)c2c(C)cc(C)cc2C)[C@@H](C)O)CCNC(=O)[C@H]([C@@H](C)O)NC(=O)[C@H](CCN)NC(=O)[C@H](CCN)NC1=O [Compound 92] (X30-[Dab]T[Dap][Dab][Dab][dL][Abu][Dab][Dab]T; lactam 4-C) :: <0.125 mg/L
CCCCCCCCCC(=O)N[C@@H](CCN)C(=O)N[C@H](C(=O)N[C@@H](CCN)C(=O)N[C@H]1CCNC(=O)[C@H]([C@@H](C)O)NC(=O)[C@H](CCN)NC(=O)[C@H](CCN)NC(=O)[C@H]([C@@H](C)O)NC(=O)[C@@H](CC(C)C)NC(=O)[C@H](CCN)NC1=O)[C@@H](C)O [Compound 27] (Decanoyl-[Dab]T[Dab][Dab][Dab][dL]T[Dab][Dab]T; lactam 4-C) :: <0.125 mg/L
CC[C@@H]1NC(=O)[C@@H](CC(C)C)NC(=O)[C@H](CCN)NC(=O)[C@@H](NC(=O)[C@H](CN)NC(=O)[C@@H](NC(=O)[C@H](CCN)NC(=O)c2cccc(C)c2C)[C@@H](C)O)CCNC(=O)[C@H]([C@@H](C)O)NC(=O)[C@H](CCN)NC(=O)[C@H](CCN)NC1=O [Compound 91] (X25-[Dab]T[Dap][Dab][Dab][dL][Abu][Dab][Dab]T; lactam 4-C) :: <0.125 mg/L

Which measured Minimum inhibitory concentration, Ec FADDI-EC001 value corresponds to CCCCCCCC(=O)N[C@@H](CCN)C(=O)N[C@H](C(=O)N[C@@H](CCN)C(=O)N[C@H]1CCNC(=O)[C@H]([C@@H](C)O)NC(=O)[C@H](CCN)NC(=O)[C@H](CCN)NC(=O)[C@H](CC)NC(=O)[C@@H](CC(C)C)NC(=O)[C@H](CCN)NC1=O)[C@@H](C)O [Compound 60] (Octanoyl-[Dab]T[Dab][Dab][Dab][dL][Abu][Dab][Dab]T; lactam 4-C) ?
<0.125 mg/L
